Data origin: ChEMBL document CHEMBL4130462

Tested on: Mycobacterium avium
Conditions: isolate MAV4
Description: Inhibition of multidrug resistance efflux pump in Mycobacterium avium isolate MAV4 assessed as potentiation of clarithromycin -induced antibacterial activity by measuring clarithromycin MIC at 1/2 MIC incubated for 3 days by MTT assay
Please go through the items and note down their MIC.
Output spec: scalar in µg/mL, unitless text.

The recorded MIC for "CCCOc1ccc(-c2cn(CCN(CC)CC)c3ccccc3c2=O)cc1" is 1

The recorded MIC for "CN(C)CCCN1c2ccccc2Sc2ccc(Cl)cc21" is 0.5

The recorded MIC for CSc1ccc2c(c1)N(CCC1CCCCN1C)c1ccccc1S2 (stereo not given) is 1

---

Tested on: Mycobacterium avium
Conditions: 104 mc'2 4
Please go through the items and note down their MIC.
Output spec: scalar in µg/mL, unitless text.

The recorded MIC for "CCCOc1ccc(-c2cn(CCN3CCCCC3)c3ccccc3c2=O)cc1" is 512

The recorded MIC for "CCCOc1ccc(-c2cn(CCN3CCCCCC3)c3ccccc3c2=O)cc1" is 128
